Recorded measurements of SPOT peptide array binding signal intensity, one per entry
Biological target: ScLsb1
Assay: SPOT peptide array binding signal intensity (averaged, normalized) (arbitrary units (background-subtracted, floor 0; scale differs between SH3 domains)); higher = stronger binding of the SH3 domain to the peptide

Reference set, count: 3
PALPSLPPPPLLNVD
≤ 0
AAAPKHAPPPVPNET
≤ 0
MAMRPIPPLPTESEY
106

Return reported SPOT peptide array binding signal intensity; argument: DLFKPLPEPPTELGR
≤ 0

These measurements were taken from the supplement of paper PMC4466140.
